- Test Target: Voltage-dependent L-type calcium channel subunit alpha-1C (Rattus norvegicus, UniProt P22002); note: assay procedure not described here
- Sequence (P22002 whole entry): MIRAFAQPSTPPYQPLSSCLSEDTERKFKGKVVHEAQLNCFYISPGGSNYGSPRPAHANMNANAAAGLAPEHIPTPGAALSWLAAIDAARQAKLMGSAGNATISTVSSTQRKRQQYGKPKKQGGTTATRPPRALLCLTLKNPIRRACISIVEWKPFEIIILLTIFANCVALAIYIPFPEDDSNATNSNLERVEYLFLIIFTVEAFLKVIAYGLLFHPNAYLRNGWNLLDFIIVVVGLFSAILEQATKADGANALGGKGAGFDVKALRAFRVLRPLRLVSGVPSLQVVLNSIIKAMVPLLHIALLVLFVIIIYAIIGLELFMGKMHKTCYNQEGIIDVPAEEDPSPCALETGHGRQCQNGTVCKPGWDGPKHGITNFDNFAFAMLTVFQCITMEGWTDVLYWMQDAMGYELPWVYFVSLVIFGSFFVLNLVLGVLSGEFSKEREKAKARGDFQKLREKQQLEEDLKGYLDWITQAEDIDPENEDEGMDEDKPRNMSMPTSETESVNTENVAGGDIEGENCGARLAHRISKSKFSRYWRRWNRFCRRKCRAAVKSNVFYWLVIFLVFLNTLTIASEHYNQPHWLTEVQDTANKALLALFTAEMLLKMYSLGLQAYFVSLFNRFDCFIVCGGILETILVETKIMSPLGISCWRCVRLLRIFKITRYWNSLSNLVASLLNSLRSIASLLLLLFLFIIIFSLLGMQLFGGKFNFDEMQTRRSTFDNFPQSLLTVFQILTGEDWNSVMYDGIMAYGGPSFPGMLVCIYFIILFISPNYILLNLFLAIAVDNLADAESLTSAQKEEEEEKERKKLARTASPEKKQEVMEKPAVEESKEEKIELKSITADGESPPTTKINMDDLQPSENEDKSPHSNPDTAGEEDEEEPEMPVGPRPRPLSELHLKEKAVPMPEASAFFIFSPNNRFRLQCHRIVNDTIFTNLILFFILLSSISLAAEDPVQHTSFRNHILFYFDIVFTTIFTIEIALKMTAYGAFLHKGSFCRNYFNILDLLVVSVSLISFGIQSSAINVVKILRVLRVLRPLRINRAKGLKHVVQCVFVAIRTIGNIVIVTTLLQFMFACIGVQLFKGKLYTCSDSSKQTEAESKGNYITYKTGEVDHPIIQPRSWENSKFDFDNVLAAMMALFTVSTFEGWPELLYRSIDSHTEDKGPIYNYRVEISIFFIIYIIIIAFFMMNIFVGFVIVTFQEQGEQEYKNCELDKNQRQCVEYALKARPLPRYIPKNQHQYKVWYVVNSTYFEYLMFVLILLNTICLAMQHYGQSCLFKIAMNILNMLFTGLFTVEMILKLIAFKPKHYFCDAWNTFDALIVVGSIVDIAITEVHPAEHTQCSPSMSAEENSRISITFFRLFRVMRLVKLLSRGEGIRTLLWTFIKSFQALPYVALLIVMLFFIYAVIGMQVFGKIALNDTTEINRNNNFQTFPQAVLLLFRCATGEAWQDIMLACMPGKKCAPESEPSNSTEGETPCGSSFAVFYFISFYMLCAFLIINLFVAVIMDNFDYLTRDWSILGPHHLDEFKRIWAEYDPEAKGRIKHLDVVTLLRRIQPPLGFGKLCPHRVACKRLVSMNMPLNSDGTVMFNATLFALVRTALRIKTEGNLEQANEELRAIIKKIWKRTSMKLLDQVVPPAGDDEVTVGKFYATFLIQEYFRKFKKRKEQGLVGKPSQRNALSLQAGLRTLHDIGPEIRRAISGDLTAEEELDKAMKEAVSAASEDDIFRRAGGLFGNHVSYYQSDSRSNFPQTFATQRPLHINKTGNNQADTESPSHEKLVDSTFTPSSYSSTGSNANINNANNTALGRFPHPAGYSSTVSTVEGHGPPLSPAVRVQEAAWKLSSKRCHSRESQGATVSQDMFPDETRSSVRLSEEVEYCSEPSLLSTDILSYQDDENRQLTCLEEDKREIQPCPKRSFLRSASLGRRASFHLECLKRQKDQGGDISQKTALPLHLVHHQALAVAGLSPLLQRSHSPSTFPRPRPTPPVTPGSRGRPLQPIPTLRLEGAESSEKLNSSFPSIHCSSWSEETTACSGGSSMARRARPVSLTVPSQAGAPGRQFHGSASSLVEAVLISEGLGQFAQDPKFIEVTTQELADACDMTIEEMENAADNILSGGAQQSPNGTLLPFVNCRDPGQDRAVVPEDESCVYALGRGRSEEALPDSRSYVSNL
- Assay type: functional
Attribute Measured: AC50

These solved cases illustrate the format of a correct answer.
INSERT INTO measurements (compound, attribute_measured, result_value) VALUES
  ('CCOc1ccccc1OCCN[C@H](C)Cc1ccc(OC)c(S(N)(=O)=O)c1 [TAMSULOSIN]', 'AC50', '> 10 µM'),
  ('Cc1ccc(S(=O)(=O)NC(=O)N[C@H]2[C@H]3CC[C@@](C)([C@H]2O)C3(C)C)cc1 [GLIBORNURIDE]', 'AC50', '> 30 µM'),
  ('C[C@@H](Cc1ccccc1)N(C)Cc1ccccc1 [BENZPHETAMINE]', 'AC50', '> 10 µM');

Kindly give each listed record's AC50.
1. O=C(O)c1ccc2nc(-c3cc(Cl)cc(Cl)c3)oc2c1
2. OCC(O)COc1ccc(Cl)cc1 (configuration not stated)
3. CCN(CCO)CCCC(C)Nc1ccnc2cc(Cl)ccc12 (configuration not stated) [HYDROXYCHLOROQUINE]
4. CC(NC(C)(C)C)C(=O)c1cccc(Cl)c1 (configuration not stated) [BUPROPION]
5. CN(C)CCC(O)(c1ccccc1)c1ccccc1Cl (configuration not stated) [CHLOPHEDIANOL]
6. CCOc1cc2ncc(C#N)c(Nc3ccc(OCc4ccccn4)c(Cl)c3)c2cc1NC(=O)/C=C/CN(C)C [NERATINIB]
7. CCOC(=O)Nc1ccc(NCc2ccc(F)cc2)nc1N [FLUPIRTINE]

Return:
> 30 µM
> 10 µM
> 10 µM
> 10 µM
> 10 µM
> 10 µM
> 30 µM

Kindly give each listed record's AC50.
1. CCOC(=O)[C@H](CCc1ccccc1)N[C@@H](C)C(=O)N1Cc2ccccc2C[C@H]1C(=O)O
2. CC(C)(N)Cc1ccccc1 [PHENTERMINE]
3. C[C@H](Cn1cnc2c(N)ncnc21)OCP(=O)(O)O [TENOFOVIR ANHYDROUS]
4. CO/N=C(\C(=O)N[C@@H]1C(=O)N2C(C(=O)O)=C(CSc3nc(C)c(CC(=O)O)s3)CS[C@H]12)c1csc(N)n1 [CEFODIZIME]
5. CC(=O)[C@@]1(O)CC[C@H]2[C@@H]3C[C@H](C)C4=CC(=O)C=C[C@]4(C)[C@@]3(F)[C@@H](O)C[C@@]21C [FLUOROMETHOLONE]
6. NCC1(CC(=O)O)CCCCC1 [GABAPENTIN]
7. O=C(O)CCCC[C@@H]1SC[C@@H]2NC(=O)N[C@@H]21 [BIOTIN]

Return:
1. > 10 µM
2. > 10 µM
3. > 30 µM
4. > 30 µM
5. > 10 µM
6. > 10 µM
7. > 10 µM

* * *

Please go through the items and note down their AC50.
- Test Target: Motilin receptor (Homo sapiens); note: assay procedure not described here
- Sequence (O43193 whole entry): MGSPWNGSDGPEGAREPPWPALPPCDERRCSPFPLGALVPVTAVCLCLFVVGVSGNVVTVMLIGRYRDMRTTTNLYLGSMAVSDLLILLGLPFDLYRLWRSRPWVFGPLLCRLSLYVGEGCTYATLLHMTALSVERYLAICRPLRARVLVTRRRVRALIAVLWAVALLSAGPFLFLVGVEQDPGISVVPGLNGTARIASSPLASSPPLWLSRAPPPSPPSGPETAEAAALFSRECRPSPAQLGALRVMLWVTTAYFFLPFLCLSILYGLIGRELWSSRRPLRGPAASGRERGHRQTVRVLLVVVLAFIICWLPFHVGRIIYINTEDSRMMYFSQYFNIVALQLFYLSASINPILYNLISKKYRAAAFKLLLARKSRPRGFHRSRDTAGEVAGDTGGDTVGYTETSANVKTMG

Kindly give each listed record's AC50.
1. CCOC(=O)C1=C(C)NC(C)=C(C(=O)OC)C1c1cccc(Cl)c1Cl (centres undefined)
2. COc1cc(N)cn[n+]1-c1ccccc1 [AMEZINIUM METILSULFATE]
3. CC[N+](CC)(CCNC(=O)C(=O)NCC[N+](CC)(CC)Cc1ccccc1Cl)Cc1ccccc1Cl

Return:
1. > 10 µM
2. > 30 µM
3. > 30 µM

Enquiry: Looking for the measured AC50 of CC1(C)O[C@@H]2C[C@H]3[C@@H]4CCC5=CC(=O)C=C[C@]5(C)[C@@]4(F)[C@@H](O)C[C@]3(C)[C@]2(C(=O)CO)O1 [TRIAMCINOLONE ACETONIDE] , can you help?
Return: > 30 µM

* * *

- Test Target: UniProtKB P06401
- Type: functional
Attribute Measured: AC50

These solved cases illustrate the format of a correct answer.
INSERT INTO measurements (molecule, result_value) VALUES
  ('CC(C)C[C@H](NC(=O)[C@H](Cc1ccccc1)NC(=O)c1cnccn1)B(O)O [BORTEZOMIB]', '> 30 µM'),
  ('CCOC(=O)Nc1ccc(NCc2ccc(F)cc2)nc1N [FLUPIRTINE]', '> 30 µM'),
  ('OCC(O)COc1ccc(Cl)cc1 (stereo not drawn)', '> 10 µM'),
  ('CCN(CCO)CCCC(C)Nc1ccnc2cc(Cl)ccc12 (stereo not drawn) [HYDROXYCHLOROQUINE]', '> 10 µM'),
  ('CC(C)(Oc1ccc(Cl)cc1)C(=O)OCCOC(=O)c1cccnc1 [ETOFIBRATE]', '> 30 µM');

Kindly give each listed record's AC50.
1. CCCCOC(=O)c1ccc(N)cc1 [BUTAMBEN]
2. CC(=O)OCC1=C(C(=O)O)N2C(=O)[C@@H](NC(=O)CSc3ccncc3)[C@H]2SC1 [CEPHAPIRIN]
3. COC(=O)c1ccc2c(c1)NC(=O)/C2=C(\Nc1ccc(N(C)C(=O)CN2CCN(C)CC2)cc1)c1ccccc1 [NINTEDANIB]
4. CCCO[C@H]1[C@@H]([C@@H](COCc2ccc(Cl)cc2)OCc2ccc(Cl)cc2)OC(OCC)[C@@H]1O (stereo partly drawn) [CLOBENOSIDE]
5. CCC1(C)CC(=O)NC1=O (stereo not drawn) [ETHOSUXIMIDE]
6. CN1CCCN=C1/C=C/c1cccc(O)c1 [OXANTEL]
7. OCC(CO)N[C@H]1C[C@](O)(CO)[C@@H](O)[C@H](O)[C@H]1O [VOGLIBOSE]

Return:
1: > 30 µM; 2: > 30 µM; 3: > 30 µM; 4: > 30 µM; 5: > 10 µM; 6: > 30 µM; 7: > 30 µM

* * *

These records show AC50 for Progesterone receptor (Homo sapiens, UniProt P06401).

These solved cases illustrate the format of a correct answer.
INSERT INTO assay_data (compound, result_value) VALUES
  ('CC(=O)O[C@]1(C(C)=O)CC[C@H]2[C@@H]3CCC4=CC(=O)CCC4=C3[C@@H](c3ccc(N(C)C)cc3)C[C@@]21C [ULIPRISTAL ACETATE]', '0.003 µM'),
  ('O=NN(CCCl)C(=O)NC1CCCCC1', '> 30 µM'),
  ('O=C1[C@@H]2[C@H]3CC[C@H](C3)[C@@H]2C(=O)N1C[C@@H]1CCCC[C@H]1CN1CCN(c2nsc3ccccc23)CC1', '> 30 µM');

Kindly consider the entry below.
Enquiry: Looking for the measured AC50 of CC(C)(C)NCC(O)COc1ccccc1C#N (centres undefined) , can you help?
Return: > 30 µM

* * *

- Test Target: Alpha-2B adrenergic receptor (Homo sapiens); note: assay procedure not described here
- Sequence (P18089 whole entry): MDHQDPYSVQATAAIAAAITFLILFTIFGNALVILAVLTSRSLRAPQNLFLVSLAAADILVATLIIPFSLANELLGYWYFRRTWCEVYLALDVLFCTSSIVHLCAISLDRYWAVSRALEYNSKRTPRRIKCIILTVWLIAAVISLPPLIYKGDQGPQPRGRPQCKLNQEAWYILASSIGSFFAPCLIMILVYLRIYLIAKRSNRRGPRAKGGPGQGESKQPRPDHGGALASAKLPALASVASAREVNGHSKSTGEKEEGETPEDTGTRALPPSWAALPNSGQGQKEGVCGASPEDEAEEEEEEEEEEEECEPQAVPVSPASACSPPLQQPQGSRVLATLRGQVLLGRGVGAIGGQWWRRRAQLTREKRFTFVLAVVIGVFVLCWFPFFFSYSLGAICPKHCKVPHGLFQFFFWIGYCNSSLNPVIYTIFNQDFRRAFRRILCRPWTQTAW
Please go through the items and note down their AC50.

INSERT INTO results (compound, result_value) VALUES
  ('OCCOCCN1CCN(C(c2ccccc2)c2ccc(Cl)cc2)CC1 (stereo not drawn) [HYDROXYZINE]', '8 µM');

Kindly give each listed record's AC50.
1. CCOC(=O)Nc1ccc(NCc2ccc(F)cc2)nc1N
2. CN(C)CCC(O)(c1ccccc1)c1ccccc1Cl (stereo not drawn)
3. COc1cc2c(cc1OC)C1CC(=O)C(CC(C)C)CN1CC2 (stereo not drawn)
4. C[C@]12CCC(=O)C=C1CC[C@H]1[C@@H]3CC[C@](O)(C(=O)CO)[C@@]3(C)C[C@H](O)[C@@]12F
5. COC(=O)c1ccc2c(c1)NC(=O)/C2=C(\Nc1ccc(N(C)C(=O)CN2CCN(C)CC2)cc1)c1ccccc1
6. COc1ccc(-n2nc(C(N)=O)c3c2C(=O)N(c2ccc(N4CCCCC4=O)cc2)CC3)cc1
7. CCOc1ccccc1OCCN[C@H](C)Cc1ccc(OC)c(S(N)(=O)=O)c1

Return:
> 30 µM
> 10 µM
> 30 µM
> 10 µM
11 µM
> 30 µM
1.9 µM

* * *

- Test Target: D(3) dopamine receptor (Homo sapiens, UniProt P35462); note: assay procedure not described here
- Sequence (P35462 whole entry): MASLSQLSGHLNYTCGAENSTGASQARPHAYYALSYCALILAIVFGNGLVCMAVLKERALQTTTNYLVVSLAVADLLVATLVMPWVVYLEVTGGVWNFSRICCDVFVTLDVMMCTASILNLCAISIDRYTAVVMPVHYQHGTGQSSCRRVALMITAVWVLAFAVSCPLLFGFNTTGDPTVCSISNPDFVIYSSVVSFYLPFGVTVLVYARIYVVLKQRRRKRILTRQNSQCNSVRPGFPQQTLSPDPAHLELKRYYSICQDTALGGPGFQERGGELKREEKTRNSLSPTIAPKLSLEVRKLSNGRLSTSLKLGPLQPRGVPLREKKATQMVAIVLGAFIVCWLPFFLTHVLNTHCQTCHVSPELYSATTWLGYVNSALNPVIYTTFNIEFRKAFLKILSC
Attribute Measured: AC50

These solved cases illustrate the format of a correct answer.
INSERT INTO measurements (molecule, result_value) VALUES
  ('CCCCCCCCCCCCCCCC(=O)OC[C@H](COP(=O)([O-])OCC[N+](C)(C)C)OC(=O)CCCCCCCCCCCCCCC [COLFOSCERIL PALMITATE]', '> 30 µM'),
  ('CC(=O)OC1CN2CCC1CC2 (stereo not drawn) [ACECLIDINE]', '> 30 µM');

Kindly give each listed record's AC50.
1. COc1cccc2c1C(=O)c1c(O)c3c(c(O)c1C2=O)C[C@@](O)(C(=O)CO)C[C@@H]3O[C@H]1C[C@H](N)[C@H](O)[C@H](C)O1 [DOXORUBICIN]
2. NCC1(CC(=O)O)CCCCC1 [GABAPENTIN]
3. CCOc1ccc(Cc2nccc3cc(OCC)c(OCC)cc23)cc1OCC [ETHAVERINE]
4. NS(=O)(=O)c1cc2c(cc1Cl)NC(C(Cl)Cl)NS2(=O)=O (stereo not drawn) [TRICHLORMETHIAZIDE]
5. O=C(Cc1cccs1)N[C@@H]1C(=O)N2C(C(=O)[O-])=C(C[n+]3ccccc3)CS[C@H]12 [CEPHALORIDINE]
6. NC(=O)C1(N2CCCCC2)CCN(CCCC(=O)c2ccc(F)cc2)CC1 [PIPAMPERONE]

Return:
> 30 µM
> 30 µM
25.5 µM
> 30 µM
> 30 µM
1.77 µM
